Reported Increases, dry wt. values for the following molecules.
System: Hybrid Sweet Corn Seedlings (cv. Silver Queen)
Test: Greenhouse trial: dry weight and water uptake of seedlings after foliar spraying
Assay type: in vivo
Conditions: 14-day old seedlings; plant growth substance 0.01 mM; with 1-triacontanol 0.1 mg/liter
Description: In general, greenhouse trials were conducted as follows: eight to twelve seeds were sown per pot in Peat-Lite® Mix and received an average of 100 ml of water per day. […] It is particularly advantageous to arrange each of the potted plants in size range categories corresponding to the number of replications used. For example, if five replications are employed, plants are divided into five size categories, normally measured by the height of the plants. […]

[[record]]
molecule = "O=C(O)Cc1c[nH]c2ccccc12 [IAA, indole-3-acetic acid, reference compound]"
value_reported = "+2%"

[[record]]
molecule = "C=C1C[C@]23C[C@@]1(O)CC[C@H]2[C@@]12C=C[C@H](O)[C@@](C)(C(=O)O1)[C@H]2[C@@H]3C(=O)O [GA3, gibberellic acid, reference compound]"
value_reported = "-15%"

[[record]]
molecule = "O=C(O)COc1ccc(Cl)cc1Cl [2,4-D, 2,4-dichlorophenoxyacetic acid, reference compound]"
value_reported = "+17%"


*Q* Annotate the molecule c1coc(CNc2ncnc3nc[nH]c23)c1 [Kinetin, 6-furfurylamino purine, reference compound] with its measured Increases, dry wt..
*A* -21%

###

test system: Hybrid Sweet Corn Seedlings (cv. Silver Queen); assay: Greenhouse trial: dry weight and water uptake of seedlings after foliar spraying; assay type: in vivo; settings: 1-triacontanol 0.1 mg/liter, Formulation 4; additive 9 mM (none in the last line)
property: Increase in dry weight

[[record]]
molecule = "CC(C)CC(N)C(=O)[O-].CC(C)CC(N)C(=O)[O-].[Ca+2] (stereo not shown) [Metal Proteinate, reference compound]"
value_reported = "+15%"


*Q* Give the value of Increase in dry weight reported for the following: [Ca+2].[Cl-].[Cl-]
*A* +50%

*Q* Kindly indicate its recorded Increase in dry weight. Item: CCCCCCCCCCCCCCCCCCCCCCCCCCCCCCO
*A* +21%

*Q* For the molecule N.N.N.N.N.N.[Cl-].[Cl-].[Cl-].[Co+3] [Co(NH3)6 Cl3, reference compound] , give its reported Increase in dry weight.
*A* +13%

###

In this section we review reported Increases, H2O uptake values for a set of compounds.
test system: Hybrid Sweet Corn Seedlings (cv. Silver Queen); test: Greenhouse trial: dry weight and water uptake of seedlings after foliar spraying; type: in vivo; settings: 14-day old seedlings; metal salt 1 mM (1 ea. for the mixture); with 1-triacontanol 0.1 mg/liter; Formulation 4

Known Increases, H2O uptake results, listed for orientation:
[[record]]
compound = "[Cl][Mn][Cl] [MnCl2]"
property = "Increases, H2O uptake"
value_reported = "+29%"

[[record]]
compound = "[Ca+2].[Cl-].[Cl-] [CaCl2]"
property = "Increases, H2O uptake"
value_reported = "+35%"

[[record]]
compound = "[Cl-].[Cl-].[Mg+2] [MgCl2]"
property = "Increases, H2O uptake"
value_reported = "+20%"


*Q* // fetch Increases, H2O uptake given entry O=S(=O)([O-])[O-].O=S(=O)([O-])[O-].[Ce+4] [Ce(SO4)2]
*A* +26%

###

Reported % increase (dry weight) values for a set of compounds
system: Hybrid Sweet Corn Seedlings (cv. Silver Queen); assay: Greenhouse trial: dry weight and water uptake of seedlings after foliar spraying; assay type: in vivo; settings: 14-day old seedlings; metal ion 9 mM (none in the last line) with 1-triacontanol 0.1 mg/liter; pH 8 to 10; Formulation 4

These recorded examples may help you get a feel for the data.
[[record]]
mol_smiles = "[Mn+2]"
value_reported = "+31%"

[[record]]
mol_smiles = "[Cd+2]"
value_reported = "+58%"


*Q* Report measured % increase (dry weight); entry is [Ba+2]
*A* +35%
